# Assay system: Delta-type opioid receptor (Rattus norvegicus)
# Sequence (P33533 whole entry): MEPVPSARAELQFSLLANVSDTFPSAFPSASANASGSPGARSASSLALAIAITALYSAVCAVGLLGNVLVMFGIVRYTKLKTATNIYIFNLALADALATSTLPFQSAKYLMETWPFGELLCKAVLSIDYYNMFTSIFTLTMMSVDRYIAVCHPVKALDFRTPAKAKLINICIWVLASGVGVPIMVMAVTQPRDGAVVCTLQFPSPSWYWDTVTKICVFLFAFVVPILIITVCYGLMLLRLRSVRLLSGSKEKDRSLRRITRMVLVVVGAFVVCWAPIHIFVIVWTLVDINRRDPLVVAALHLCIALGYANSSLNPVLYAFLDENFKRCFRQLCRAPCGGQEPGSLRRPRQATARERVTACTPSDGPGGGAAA
# Measurement notes: Inhibition of [3H]DPDPE to opioid receptor delta of rat fore brain membranes was determined
Measurement label: pKi
One number for each entry, as −log10 of the molar value.

Solved cases (3 shown):
• CC[C@H](C)[C@H](NC(=O)[C@H](CCCN=C(N)N)NC(=O)[C@H](CCCN=C(N)N)NC(=O)[C@H](CC(C)C)NC(=O)[C@H](Cc1ccccc1)NC(=O)CNC(=O)CNC(=O)[C@@H](N)Cc1ccc(O)cc1)C(=O)N[C@@H](CCCN=C(N)N)C(=O)N1CCC[C@H]1C(=O)N[C@@H](CCCCN)C(=O)N[C@@H](CC(C)C)C(=O)N[C@@H](CCCCNC(C)=O)C(N)=O = 8.34
• CC[C@H](C)[C@H](NC(=O)[C@H](CCCN=C(N)N)NC(=O)[C@H](CCCN=C(N)N)NC(=O)[C@H](CC(C)C)NC(=O)[C@H](Cc1ccccc1)NC(=O)CNC(=O)CNC(=O)[C@@H](N)Cc1ccc(O)cc1)C(=O)N[C@@H](CCCN=C(N)N)C(=O)N1CCC[C@H]1C(=O)N[C@@H](CCCCNC(C)=O)C(=O)N[C@@H](CC(C)C)C(=O)N[C@@H](CCCCN)C(N)=O = 9.35
• CC[C@H](C)[C@H](NC(=O)[C@H](CCCN=C(N)N)NC(=O)[C@H](CCCN=C(N)N)NC(=O)[C@H](CC(C)C)NC(=O)[C@H](Cc1ccccc1)NC(=O)CNC(=O)CNC(=O)[C@@H](N)Cc1ccc(O)cc1)C(=O)N[C@@H](CCCN=C(N)N)C(=O)N1CCC[C@H]1C(=O)N[C@@H](CCCCN)C(=O)N[C@@H](CC(C)C)C(=O)N[C@@H](CCCCN)C(N)=O = 8.72

Now for the molecule whose pKi we want.
For the molecule shown here, CC[C@H](C)[C@H](NC(=O)[C@H](CCCN=C(N)N)NC(=O)[C@H](CCCN=C(N)N)NC(=O)[C@H](CC(C)C)NC(=O)[C@H](Cc1ccccc1)NC(=O)CNC(=O)CNC(=O)[C@@H](N)Cc1ccc(O)cc1)C(=O)N[C@@H](CCCCNC(C)=O)C(=O)N1CCC[C@H]1C(=O)N[C@@H](CCCCN)C(=O)N[C@@H](CC(C)C)C(=O)N[C@@H](CCCCN)C(N)=O , give the reported pKi.
8.89

Data provenance is ChEMBL document CHEMBL1125361.
